pIC50 data for ROCK2 (Homo sapiens (Human), UniProt O75116) follow.
pIC50: −log10 of the molar value.
Property measured: pIC50

[[record]]
compound = "COC(=O)C[C@@H](NC(=O)c1ccc(-c2cn[nH]c2)c(C)c1)c1ccccc1"
property_measured = "pIC50"
measured_result = 7.15

[[record]]
compound = "COc1cc(C(=O)NCc2ccccc2C)ccc1-c1cn[nH]c1"
property_measured = "pIC50"
measured_result = 8.67


a. COc1cccc(C(C)NC(=O)c2ccc(-c3cn[nH]c3)c(OC)c2)n1 (centres unmarked)
b. COc1cc(-c2cn[nH]c2)ccc1C(=O)N[C@H](C)c1ccc(F)cc1
Query: // compare measured pIC50, left a , right b , return larger Return value: the label identifying the chosen record.
Response: b

All values here come from patent US9458110B2.
